Measured MIC by item
Tested on: Escherichia coli ATCC 25922
Experiment: Broth microdilution antibacterial susceptibility (MIC/MBC)
Format: cell-based
Conditions: Escherichia coli, ATCC25922, 24 h, read-out: MIC, Ec ATCC 25922, broth microdilution, 35°C, 24 h
Reply with just the number (in µg/mL).

CC/C(=C\c1cccc([N+](=O)[O-])c1)[N+](=O)[O-] [Compound 12]: 16

Lab note: next compound to report on.
Record C/C(=C\c1ccc([N+](=O)[O-])cc1)[N+](=O)[O-] [Compound 8] . Reported MIC: 64

====

Test system: nitric oxide production in L. donovani infected peritoneal macrophages
Experiment: Nitrite (NO) production by Griess reaction in infected macrophages
Type: cell-based, BALB/c mice
Conditions: compound at 25 μM, 48 h
Catalogue of NO production (nitrite) values
Unit µM implied. Number only.

Example entries and their recorded answers appear below.
CC/C(=C\c1ccc(O)cc1)[N+](=O)[O-] [Compound 18, 4-((E)-2-nitrobut-1-enyl) phenol]: 3.22
COc1ccc(/C=C(\C)[N+](=O)[O-])cc1 [Compound 14]: 5.89
CC/C(=C\c1ccc([N+](=O)[O-])cc1)[N+](=O)[O-] [Compound 9]: 8.05

Next item in the queue.
// NO production (nitrite) lookup, molecule = CC/C(=C\c1cccc([N+](=O)[O-])c1)[N+](=O)[O-] [Compound 12] , result: 7.89

====

Below: a set of entries, each annotated with reported melting point.

Recorded results for 5 molecules are shown here.
CC/C(=C\c1ccc([N+](=O)[O-])cc1)[N+](=O)[O-]: 104 to 106 °C
CC/C(=C\c1cccc(O)c1)[N+](=O)[O-] [Compound 21, 3-((E)-2-nitrobut-1-enyl) phenol]: 82 to 84 °C
C/C(=C\c1cccc(O)c1)[N+](=O)[O-] [Compound 20, 3-((E)-2-nitroprop-1-enyl) phenol]: 96 to 98 °C
CC/C(=C\c1ccc(OC)c(OC)c1)[N+](=O)[O-]: 78 to 80 °C
CC/C(=C\c1c[nH]c2ccccc12)[N+](=O)[O-] [Compound 30, 3-((E)-2-nitrobut-1-enyl)-1H-indole]: 64 to 66 °C

// field: melting point; key: CC/C(=C(/C)c1cccc(O)c1)[N+](=O)[O-] [Compound 26, 3-((E)-3-nitropent-2-en-2-yl)phenol] ; value = 138 to 140 °C

// recorded melting point for CCOc1cccc(/C=C/[N+](=O)[O-])c1O [Compound 27, 2-ethoxy-6-((E)-2-nitrovinyl) phenol] : 128 to 130 °C

Per the record, C/C(=C\c1ccc([N+](=O)[O-])cc1)[N+](=O)[O-] has melting point of 114 to 116 °C

melting point reported for this molecule COc1ccc(/C=C(\C)[N+](=O)[O-])cc1OC : 70 to 72 °C

For this molecule ( C/C(=C\[N+](=O)[O-])c1ccc(O)cc1 [Compound 25, 4-((E)-1-nitroprop-1-en-2-yl)phenol] ), measured melting point is 88 to 90 °C

Reported melting point of C/C(=C\c1ccc(O)cc1)[N+](=O)[O-] [Compound 17, 4-((E)-2-nitroprop-1-enyl) phenol] : 122 to 124 °C

What the record says about C/C(=C\c1c[nH]c2ccccc12)[N+](=O)[O-] [Compound 29, 3-((E)-2-nitroprop-1-enyl)-1H-indole] : melting point is 182 to 184 °C

Reported melting point for CC/C(=C\c1cccc([N+](=O)[O-])c1)[N+](=O)[O-] was 84 to 86 °C

====

Quick reference: MIC of the listed items.
Tested on: Candida albicans ATCC 90028
Experiment: Broth microdilution antifungal susceptibility (MIC/MFC)
Type: cell-based
Conditions: Candida albicans, ATCC90028, 48 h, broth microdilution, 35°C, 48 h; read-out: MIC, Ca ATCC 90028
Form entry: value (µg/mL) — number only.

O=[N+]([O-])/C=C/c1ccc(Cl)cc1 [Compound 1, 1-chloro-4-((E)-2-nitrovinyl) benzene]: 32
C/C(=C\c1c[nH]c2ccccc12)[N+](=O)[O-] [Compound 29, 3-((E)-2-nitroprop-1-enyl)-1H-indole]: 64
COc1ccc(/C=C/[N+](=O)[O-])cc1 [Compound 13, 1-methoxy-4-((E)-2-nitrovinyl) benzene]: 64
CCOc1cccc(/C=C/[N+](=O)[O-])c1O [Compound 27, 2-ethoxy-6-((E)-2-nitrovinyl) phenol]: 32
COc1ccc(/C=C/[N+](=O)[O-])cc1OC [Compound 22]: 64

Next, consider the following compound.
Entry COc1ccc(/C=C(\C)[N+](=O)[O-])cc1OC [Compound 23] ; MIC = 32

====

List of MBC values.
Test system: Escherichia coli ATCC 25922
Test: Broth microdilution antibacterial susceptibility (MIC/MBC)
Type: cell-based
Details: Escherichia coli, ATCC25922; ≥99.9% reduction of original inoculum; read-out: MBC, Ec ATCC 25922

CCOc1cccc(/C=C/[N+](=O)[O-])c1O [Compound 27, 2-ethoxy-6-((E)-2-nitrovinyl) phenol]: > 64 µg/mL
COc1ccc(/C=C(\C)[N+](=O)[O-])cc1OC: > 64 µg/mL

So, CC/C(=C\c1cccc(O)c1)[N+](=O)[O-] [Compound 21, 3-((E)-2-nitrobut-1-enyl) phenol] ? Its MBC was 64 µg/mL

====

System: Candida albicans ATCC 90028
Experiment: Broth microdilution antifungal susceptibility (MIC/MFC)
Type: cell-based
Settings: Candida albicans, ATCC90028, 48 h, broth microdilution, 35°C, 48 h; read-out: MIC, Ca ATCC 90028
Measured property: MIC

CN(C)c1ccc(/C=C/[N+](=O)[O-])cc1: > 64 mg/L
C/C(=C\c1ccc(N(C)C)cc1)[N+](=O)[O-]: > 64 mg/L

So, CC/C(=C\c1c[nH]c2ccccc12)[N+](=O)[O-] [Compound 30, 3-((E)-2-nitrobut-1-enyl)-1H-indole] ? Its MIC was > 64 mg/L
